// data source = PubChem BioAssay (NCATS)

- System: 7G8
- protocol text: qHTS profiling for inhibitors of Plasmodium falciparum proliferation (AID 504749); note: nearly all actives have a fitted effect of over 60% in size
- condition context: P. falciparum in erythrocytes, SYBR Green DNA, 72 h; series mostly up to 28.7 µM
Results filed as inconclusive are left out. Active and inactive are the calls of the source. Calls come from the whole dose curve; as a rule, active = well fitted inhibition curve with a large enough effect; inconclusive = small, poorly fitted or top-dose-only effect; inactive = flat fitted curve, though single readings scatter.
Hi! Could you answer with just one of these? yes = active, no = inactive

1) CC(C)(C)NC[C@H](O)COc1cccc2c1CCCC2=O | no

[in] Answer briefly: the call reported for Oc1c(Cl)cc(Cl)c(Cl)c1Cc1c(O)c(Cl)cc(Cl)c1Cl in this assay.
[out] yes

[in] Entry O=C(Nc1ncc([N+](=O)[O-])s1)c1cccs1 : call = ?
[out] no

[in] What did this assay record as the result for Cc1c(-c2ccccc2)oc2c(C(=O)OCCN3CCCCC3)cccc2c1=O ?
[out] no

[in] Could you please tell me the result logged for OC[C@H]1O[C@@H]2O[C@H]3[C@H](O)[C@@H](O)[C@@H](O[C@H]4[C@H](O)[C@@H](O)[C@@H](O[C@H]5[C@H](O)[C@@H](O)[C@@H](O[C@H]6[C@H](O)[C@@H](O)[C@@H](O[C@H]7[C@H](O)[C@@H](O)[C@@H](O[C@H]8[C@H](O)[C@@H](O)[C@@H](O[C@H]1[C@H](O)[C@H]2O)O[C@@H]8CO)O[C@@H]7CO)O[C@@H]6CO)O[C@@H]5CO)O[C@@H]4CO)O[C@@H]3CO in this assay?
[out] no

[in] Would you mind telling me which call this test gave CN1CCc2cccc3c2[C@H]1Cc1ccc(O)c(O)c1-3 ?
[out] yes

[in] Test call for this compound, please: O=C(O)CCC(=O)Nc1ccc(S(=O)(=O)Nc2nccs2)cc1
[out] no

[in] For this compound, state the assay outcome: O[C@@H](c1cc(C(F)(F)F)nc2c(C(F)(F)F)cccc12)[C@H]1CCCCN1
[out] yes

[in] Per the records of this test, what outcome belongs to C[C@@H](O)[C@H]1C(=O)N2C(C(=O)O)=C(S[C@@H]3CN[C@H](CNS(N)(=O)=O)C3)[C@H](C)[C@H]12 ?
[out] no

[in] // return assay outcome for CCOc1ccccc1OCCN[C@H](C)Cc1ccc(OC)c(S(N)(=O)=O)c1
[out] no

====

- protocol text: Tertiary RLuc qRT-PCR qHTS assay for Zika virus inhibitors (AID 1347169); note: top concentration of the series differs between compounds; % is set by controls: 0 for no effect and ±100 for the full control effect; nearly all actives have a fitted effect of over 55% in size
- condition context: infected Vero cells, reporter luminescence, 48-72 h; series mostly up to 45.9 µM
Records with an inconclusive call do not appear. The source made the active and inactive calls. The call rests on the fitted dose curve; in most records, active means well fitted inhibition curve with a large enough effect; inconclusive means small, poorly fitted or top-dose-only effect; inactive means no such curve, though single readings can be large or run the other way.
recorded metric: activity change, negative = inhibition

1. O=C(O)C(Cc1cc(I)c(O)c(I)c1)c1ccccc1 (centres undefined) | -2.94% [at 1.74 µM] (inactive)
2. C=C[C@H]1CN2CC[C@H]1C[C@H]2[C@H](O)c1ccnc2ccc(OC)cc12 | inactive
3. CC(C)=CCOc1ccc(/C=C/C(=O)c2ccc(OCC=C(C)C)cc2OCC(=O)O)cc1 | 84.9% [at 5.25 µM] (inactive)
4. CCC(CC)(CC(=O)Nc1cccc(/C=C/c2nc(C3CCC3)cs2)c1)C(=O)O | inactive

====

- Test system: C33A
- protocol text: Primary qHTS to identify gynecologic anti-cancer compounds using libraries of approved drugs and bioactive compounds (AID 1345084); note: nearly all actives have a fitted effect of over 55% in size
- condition context: Gynecologic cancer cell panel viability, ATPlite luminescence, 48 h; series mostly up to 57.5 µM
Inconclusive results are not listed. Active and inactive are the calls of the source. Calls follow the shape of the dose curve; as a rule, active = well fitted cell-killing curve with a large enough effect; inconclusive = small, poorly fitted or top-dose-only effect, or effect the other way; inactive = flat fitted curve, though single readings scatter.
Write down the outcome that applies. Available outcomes: active, inactive

Example entries begin here.
1) O=C(Nc1cccc(C2=NCCN2)c1)Nc1cccc(C2=NCCN2)c1 | inactive
2) Nc1ccc(S(=O)(=O)NCc2ccccc2)cc1 | inactive
3) OCc1ccccn1 | inactive
4) O=C1OC(CN2CCOCC2)CN1/N=C/c1ccc([N+](=O)[O-])o1 (centres undefined) | inactive
5) CC(C)Nc1cccnc1N1CCN(C(=O)c2cc3cc(NS(C)(=O)=O)ccc3[nH]2)CC1 | inactive
6) CCCCCCCCOc1ccc(C(=O)c2ccccc2)c(O)c1 | inactive
7) CO[C@]12C[C@@H](COC(=O)c3cncc(Br)c3)CN(C)[C@@H]1Cc1cn(C)c3cccc2c13 | inactive
8) NCCNC(=O)c1ccc(Cl)cn1 | inactive

[in] I'd appreciate the recorded outcome for NCc1ccccc1Sc1ccccc1CO from this test.
[out] inactive

[in] What did the test return for OC1C(O)C(O)C(O)C(O)C1O (centres undefined) ?
[out] inactive

[in] # outcome recorded in this test, key = NC(N)=NN=C(/C=C/c1ccc([N+](=O)[O-])o1)/C=C/c1ccc([N+](=O)[O-])o1
[out] active

[in] Can you look up the reported call for CCOCCn1c(N2CCCN(C)CC2)nc2ccccc21 for me?
[out] inactive

[in] Returns: the outcome recorded for CN1CCC(OC(c2ccccc2)c2ccccc2)CC1 in this assay.
[out] inactive

[in] Tell me the assay call for FC(F)(F)C(F)(F)C(F)(F)C(F)(F)C(F)(F)C(F)(F)C(F)(F)C(F)(F)Br please.
[out] inactive

====

- System: C2A
- protocol text: qHTS profiling for inhibitors of Plasmodium falciparum proliferation (AID 504749); note: nearly all actives have a fitted effect of over 60% in size
- condition context: P. falciparum in erythrocytes, SYBR Green DNA, 72 h; series mostly up to 28.7 µM
Results filed as inconclusive are left out. The source made the active and inactive calls. The call rests on the fitted dose curve; in most records, active means well fitted inhibition curve with a large enough effect; inconclusive means small, poorly fitted or top-dose-only effect; inactive means flat fitted curve, though single readings scatter.
Output constraint: value belongs to 1 (active), 0 (inactive)

Look over these answered cases.
1. CCN(CC)CCOc1ccccc1C(=O)CCc1ccccc1 | 0
2. CC(=O)Nc1ccc(S(=O)(=O)Nc2ccc([N+](=O)[O-])cc2)cc1 | 0
3. CCCCCCCCCCCCCCCCO | 0
4. NS(=O)(=O)Cc1noc2ccccc12 | 0
5. CC(=O)Nc1ccc(CC(=O)O)cc1 | 0

[in] For this molecule, state the assay outcome: COc1cc(O)c(C(=O)c2ccccc2)cc1S(=O)(=O)O
[out] 0

[in] So what was the verdict on Oc1ccc(Cl)cc1Cc1cc(Cl)ccc1O in this test?
[out] 0

[in] Hi, do you know how CCCCCCCCOc1ccc(C(=O)c2ccccc2)c(O)c1 came out in this test?
[out] 0

[in] What was the test verdict on O=C(CN1CCN(Cc2ccc3c(c2)OCO3)CC1)N1c2ccccc2Sc2ccccc21 ?
[out] 1

[in] What did this assay record as the result for COc1cc(C(=O)N2CCCCCCC2)cc(OC)c1OC ?
[out] 0

[in] Returns: the outcome recorded for CCOC(=O)C(C#N)=C(c1ccccc1)c1ccccc1 in this assay.
[out] 0

[in] What classification did Cl/C(=C\n1cncn1)c1ccc(Cl)cc1Cl end up with in this test?
[out] 0

[in] Hi team, can someone confirm the assay call for Cc1cccc(C)c1NC(=O)c1ccccc1C(=O)O ?
[out] 0

[in] Returns: the outcome recorded for COc1ccc(C(=O)c2ccccc2)c(O)c1 in this assay.
[out] 0

[in] Can you look up the reported call for Nc1ccc(S(=O)(=O)NCc2ccccc2)cc1 for me?
[out] 0

[in] Outcome logged for O=C(NCCc1c[nH]c2ccccc12)c1cccnc1 in this assay:
[out] 0

[in] Identify the outcome logged in this assay for the molecule shown: COc1cc(C(=O)NCc2ccc(OCCN(C)C)cc2)cc(OC)c1OC
[out] 0

[in] Could you kindly confirm the outcome this assay logged for CC(=O)Nc1ncc([N+](=O)[O-])s1 ?
[out] 0

[in] Could you please tell me the result logged for O=C(Nc1ccc([N+](=O)[O-])cc1)Nc1ccc([N+](=O)[O-])cc1 in this assay?
[out] 0

[in] Name the outcome recorded for CCNC(=O)NCc1cccc(Cl)c1 in the assay.
[out] 0

[in] For this molecule, state the assay outcome: COc1cc([C@H]2Oc3cc([C@H]4Oc5cc(O)cc(O)c5C(=O)[C@@H]4O)ccc3O[C@@H]2CO)ccc1O
[out] 0

[in] Hello, I am checking results. What call was entered for COc1ccc(CN(CCN(C)C)c2ncccn2)cc1 ?
[out] 0

[in] Given CCOC(=O)[C@H](CCc1ccccc1)N[C@@H](C)C(=O)N1[C@H](C(=O)O)C[C@H]2CCCC[C@@H]21 , state the outcome it received in this test.
[out] 0

[in] How was CCC(C(=O)OCCOCCN(CC)CC)c1ccccc1 (centres undefined) classified in this test?
[out] 0

[in] What did this assay record as the result for CCCCCCCC/C=C\CCCCCCCCN ?
[out] 0

====

- System: CP265
- protocol text: qHTS profiling for inhibitors of Plasmodium falciparum proliferation (AID 504749); note: nearly all actives have a fitted effect of over 60% in size
- condition context: P. falciparum in erythrocytes, SYBR Green DNA, 72 h; series mostly up to 28.7 µM
Inconclusive results are not listed. Active and inactive are the calls of the source. Calls follow the shape of the dose curve; as a rule, active = well fitted inhibition curve with a large enough effect; inconclusive = small, poorly fitted or top-dose-only effect; inactive = flat fitted curve, though single readings scatter.
The categories you may choose from are active, inactive

Would you please look over these solved cases?
1) O=C(NC1CCN(CCc2c[nH]c3ccccc23)CC1)c1ccccc1 | inactive
2) COc1ccccc1N1CCN(CCCCNC(=O)c2ccc(-c3ccc(C(C)=O)cc3)cc2)CC1 | inactive

[in] What is the recorded call for this molecule in the test? Cc1cccc(C)c1NC(=O)CN1CCCC1
[out] inactive

[in] Name the outcome recorded for NC(=O)c1ccccc1O in the assay.
[out] inactive

[in] I'd appreciate the recorded outcome for FC1(F)C(F)(F)C(F)(F)C2(F)C(F)(F)C(F)(F)C(F)(F)C(F)(F)C2(F)C1(F)F (centres undefined) from this test.
[out] inactive

[in] Please let me know the test result on file for Cc1c(-c2ccccc2)oc2c(C(=O)OCCN3CCCCC3)cccc2c1=O .
[out] inactive

[in] Per the records of this test, what outcome belongs to CCc1oc2ccccc2c1C(=O)c1cc(I)c(O)c(I)c1 ?
[out] inactive

[in] Tell me the assay call for O=C(CN1CCN(Cc2ccc3c(c2)OCO3)CC1)N1c2ccccc2Sc2ccccc21 please.
[out] active

[in] Could you please tell me the result logged for CC[N+](C)(CC)CCOC(=O)C(O)(c1ccccc1)C1CCCCC1 (centres undefined) in this assay?
[out] inactive

[in] I would be grateful if you could indicate the recorded call for COc1ccc(/C=N/NC(=O)c2ccncc2)cc1OC .
[out] inactive
